System: SW982 (Other Solid Carcinomas)
Assay: combination Emax (second highest fraction inhibited in the dose matrix, 72 h); higher = more inhibition; extreme values may be limits of the assay
Assign yes whenever combination Emax does not fall below 0.7; assign no whenever it does.

CS(=O)(=O)CCNCc1ccc(-c2ccc3ncnc(Nc4ccc(OCc5cccc(F)c5)c(Cl)c4)c3c2)o1 [Lapatinib] + C[C@@H](Oc1cc(-c2cnn(C3CCNCC3)c2)cnc1N)c1c(Cl)ccc(F)c1Cl [Crizotinib] (first compound max 10 µM, 7x7, partner max 10 µM)    yes
Cn1cnc2c(F)c(Nc3ccc(Br)cc3Cl)c(C(=O)NOCCO)cc21 [Selumetinib] + CC(C)n1c(=O)n(C)c2cnc3cc(F)c(-c4ccc(OCCCN5CCCCC5)nc4)cc3c21 [AZD1390] (first compound max 10 µM, 7x7, partner max 0.3 µM)    no
Cc1c2c(nn1C)CSCc1cc(n(C)n1)CSc1cc(c3ccccc3c1)OCCCc1c(C(=O)O)n(C)c3c-2c(Cl)ccc13 [AZD5991] + CS(=O)(=O)CCNCc1ccc(-c2ccc3ncnc(Nc4ccc(OCc5cccc(F)c5)c(Cl)c4)c3c2)o1 [Lapatinib] (first compound max 1 µM, 7x7, partner max 10 µM)    no
NC1(C(=O)N[C@@H](CCO)c2ccc(Cl)cc2)CCN(c2ncnc3[nH]ccc23)CC1 [Capivasertib] + CCN(CCO)CCCOc1ccc2c(Nc3cc(CC(=O)Nc4cccc(F)c4)[nH]n3)ncnc2c1 [AZD2811] (first compound max 10 µM, 7x7, partner max 1 µM)    no
COc1cccc(OCCCN)c1-c1cc(Nc2cnc(C#N)cn2)n[nH]1 [Prexasertib] + C=CCn1c(=O)c2cnc(Nc3ccc(N4CCN(C)CC4)cc3)nc2n1-c1cccc(C(C)(C)O)n1 [AZD1775] (first compound max 1 µM, partner max 1 µM)    yes

Let us examine a further case.
Query :: Could you tell me if the measured combination Emax of Cc1c2c(nn1C)CSCc1cc(n(C)n1)CSc1cc(c3ccccc3c1)OCCCc1c(C(=O)O)n(C)c3c-2c(Cl)ccc13 [AZD5991] + CC(=O)O[C@H]1C(=O)[C@@]2(C)[C@H]([C@H](OC(=O)c3ccccc3)[C@]3(O)C[C@H](OC(=O)[C@H](O)[C@@H](NC(=O)c4ccccc4)c4ccccc4)C(C)=C1C3(C)C)[C@]1(OC(C)=O)CO[C@@H]1C[C@@H]2O [Paclitaxel] (first compound max 1 µM, 7x7, partner max 3 µM) reaches 0.7 or more?
Result :: yes

# credit: the supplement of paper PMC11061612
